target: HLA-A*02 (Homo sapiens, UniProt P04439, D140Y/D185E/D98H/E176V/E277Q/G131W/G231S/I119V/I121R/I166T/I218V/N151K/N90K/P208A/P217A/Q86G/Q94H/R138H/R169H); assay: MHC binding assay, UV-ligand exchange with beta2m ELISA, HLA-A*02; details: peptide exchange yield
Reported Property: MHC class I binding score, Peptide exchange

>  <Substance>
14 (LLDHLSFINKI; listed as Homo sapiens) [compound 14]

>  <Reading>
++ (20%-49% = ++)

$$$$
>  <Substance>
81 (VLFLGKLLV; listed as Homo sapiens) [compound 81]

>  <Reading>
++ (20%-49% = ++)

$$$$
>  <Substance>
329 (FAWEPSFRDQV; listed as Homo sapiens) [compound 329]

>  <Reading>
++ (20%-49% = ++)

$$$$
>  <Substance>
55 (IASAIVNEL; listed as Homo sapiens) [compound 55]

>  <Reading>
++ (20%-49% = ++)

$$$$
>  <Substance>
39 (ALMAVVSGL; listed as Homo sapiens) [compound 39]

>  <Reading>
+++ (50%-75% = +++)

$$$$
>  <Substance>
16 (HLYNNEEQV; listed as Homo sapiens) [compound 16]

>  <Reading>
++ (20%-49% = ++)

$$$$
>  <Substance>
76 (ILLDESNFNHFL; listed as Homo sapiens) [compound 76]

>  <Reading>
+++ (50%-75% = +++)

$$$$
>  <Substance>
336 (GLMDGSPHFL; listed as Homo sapiens) [compound 336]

>  <Reading>
++ (20%-49% = ++)

$$$$
>  <Substance>
11 (GVLKVFLENV; listed as Homo sapiens) [compound 11]

>  <Reading>
++ (20%-49% = ++)

$$$$
>  <Substance>
334 (GRADALRVL; listed as Homo sapiens) [compound 334]

>  <Reading>
+++ (50%-75% = +++)

$$$$
>  <Substance>
10 (KTLDVFNIIL; listed as Homo sapiens) [compound 10]

>  <Reading>
++ (20%-49% = ++)

$$$$
>  <Substance>
6 (FLDPAQRDL; listed as Homo sapiens) [compound 6]

>  <Reading>
+++ (50%-75% = +++)

$$$$

---

target: HLA-A*02 (Homo sapiens, UniProt P04439, D140Y/D185E/D98H/E176V/E277Q/G131W/G231S/I119V/I121R/I166T/I218V/N151K/N90K/P208A/P217A/Q86G/Q94H/R138H/R169H); assay: MHC binding assay, UV-ligand exchange with beta2m ELISA, HLA-A*02; conditions: peptide exchange yield
Reported Property: MHC class I binding score, Peptide exchange

>  <Substance>
69 (GIYDGILHSI; listed as Homo sapiens) [compound 69]

>  <Reading>
+++ (50%-75% = +++)

$$$$
>  <Substance>
53 (SLLSHVIVA; listed as Homo sapiens) [compound 53]

>  <Reading>
+++ (50%-75% = +++)

$$$$
>  <Substance>
5 (SLFGQEVYC; listed as Homo sapiens) [compound 5]

>  <Reading>
+++ (50%-75% = +++)

$$$$
>  <Substance>
89 (YLVAHNLLL; listed as Homo sapiens) [compound 89]

>  <Reading>
+++ (50%-75% = +++)

$$$$
>  <Substance>
78 (LLWGHPRVA; listed as Homo sapiens) [compound 78]

>  <Reading>
+++ (50%-75% = +++)

$$$$
>  <Substance>
64 (GLSSSSYEL; listed as Homo sapiens) [compound 64]

>  <Reading>
++ (20%-49% = ++)

$$$$
>  <Substance>
92 (LLRGPPVARA; listed as Homo sapiens) [compound 92]

>  <Reading>
++ (20%-49% = ++)

$$$$

---

target: HLA-A*02 (Homo sapiens, UniProt P04439, D140Y/D185E/D98H/E176V/E277Q/G131W/G231S/I119V/I121R/I166T/I218V/N151K/N90K/P208A/P217A/Q86G/Q94H/R138H/R169H); assay: MHC binding assay, UV-ligand exchange with beta2m ELISA, HLA-A*02; conditions: peptide exchange yield
Reported Property: MHC class I binding score, Peptide exchange

>  <Substance>
331 (AIWKELISL; listed as Homo sapiens) [compound 331]

>  <Reading>
+++ (50%-75% = +++)

$$$$
>  <Substance>
29 (TLCNKTFTA; listed as Homo sapiens) [compound 29]

>  <Reading>
+++ (50%-75% = +++)

$$$$
